Kindly state Papp A→B at 120 min, 100 µM for each of the entries shown.
procedure-details: in vitro
particulars: dog, MDCK, pH 7.4

Cn1c(=O)c2c(ncn2CC2OCCO2)n(C)c1=O [Doxofylline, 2-(7′-theophyllinemethyl)-1,3-dioxolane]    22.7 ×10⁻⁶ cm/s

Query string: Please give the documented Papp A→B at 120 min, 100 µM of COCCc1ccc(OCC(O)CNC(C)C)cc1 (centres unmarked) [Metoprolol, metoprolol]
Result string: 6.52 ×10⁻⁶ cm/s
